target: recombinant human ALK protein (Homo sapiens); construct: purchased Life Technologies Inc. PV3867; assay: LanthaScreen TR-FRET in vitro inhibitory activity assay of ALK; assay type: biochemical; conditions: compound at 2ug/ml
Sequence (Q9UM73 1058-1620 limits assumed): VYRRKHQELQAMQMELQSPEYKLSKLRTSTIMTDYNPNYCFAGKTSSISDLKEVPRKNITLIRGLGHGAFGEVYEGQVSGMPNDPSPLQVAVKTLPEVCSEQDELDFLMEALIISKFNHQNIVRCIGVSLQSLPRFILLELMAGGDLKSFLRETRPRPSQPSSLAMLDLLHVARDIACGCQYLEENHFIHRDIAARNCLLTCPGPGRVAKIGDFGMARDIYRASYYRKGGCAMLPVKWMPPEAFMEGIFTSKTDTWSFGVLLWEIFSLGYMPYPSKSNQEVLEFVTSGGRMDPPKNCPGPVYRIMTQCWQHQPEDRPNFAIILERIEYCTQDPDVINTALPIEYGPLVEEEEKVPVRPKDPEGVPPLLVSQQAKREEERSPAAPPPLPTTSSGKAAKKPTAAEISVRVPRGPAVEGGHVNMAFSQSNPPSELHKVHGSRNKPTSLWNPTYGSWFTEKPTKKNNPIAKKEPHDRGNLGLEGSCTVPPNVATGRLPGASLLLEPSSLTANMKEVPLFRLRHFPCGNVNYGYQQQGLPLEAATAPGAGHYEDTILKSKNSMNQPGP
Exercise: state measured Averaged Enzymatic Inhibition @ 2ug/ml (%) for each of the molecules provided.
Numbers only, in %.

INSERT INTO results (molecule, testresult) VALUES
  ('Cc1ccc(-c2cc(-c3c(-c4ccccc4)c4cc(Cl)ccc4[nH]c3=O)nc3ccccc23)cc1 [AG-690/12134081]', 10.575);

The following molecules each have a reported value; give each one's Averaged Enzymatic Inhibition @ 2ug/ml (%).
1. COc1ccc(Cl)cc1C(=O)NCCNc1ccc(-n2nc(C)cc2C)nn1 [AQ-432/43400100]
2. Cc1ccc(C(=O)COC(=O)c2ccc3nc4c5ccccc5c5ccccc5c4nc3c2)cc1C [AK-918/13399094]
3. Cc1ccc(-n2cnc3c(sc4nnc(-c5ccccc5)c(-c5ccccc5)c43)c2=O)cc1 [AN-789/13819006]
4. CCC1CCc2c(sc(NC(=O)c3c(-c4c(Cl)cccc4Cl)noc3C)c2C(N)=O)C1 (stereo not shown) [AK-968/12265292]
5. Cc1cccn2c(=O)c3cc(C(=O)NC(C)c4ccccc4)c(=N)n(CCc4ccccc4)c3nc12 (stereo not shown) [AS-871/41399397]
6. Cc1ccc(S(=O)(=O)N(Cc2n[nH]c(=S)n2-c2ccccc2)c2cccc(Cl)c2)cc1 [AG-690/40751357]
7. Cc1cc(C)c2c(c1)c(-c1ccccc1)c(-c1ccccc1)n2CC(O)CNCc1ccccc1 (stereo not shown) [AF-399/15128108]

[-6.36, 8.005, 1.595, -4.47, -8.995, 8.965, -21.105]

The following molecules each have a reported value; give each one's Averaged Enzymatic Inhibition @ 2ug/ml (%).
1. Cc1onc(-c2ccccc2)c1C(=O)Nc1cccc2c1C(=O)c1ccccc1C2=O [AK-968/13025057]
2. O=C(Nc1ccccc1)c1c(-c2ccccc2)c(C(=O)c2ccc([N+](=O)[O-])cc2)n2ccccc12 [AI-204/31728031]
3. Cc1cc(C)c2c(c1)c(-c1ccccc1)c(-c1ccccc1)n2CC(O)CN1CCC(C)CC1 (stereo not shown) [AF-399/15128132]
4. Nc1nc(Nc2cccc(Cl)c2)sc1C(=O)C12CC3CC(CC(C3)C1)C2 [AM-807/12426163]
5. Cc1ccc(-c2csc(N3N=C(c4ccc5c(c4)CCCC5)CC3c3ccccc3)n2)cc1 (stereo not shown) [AL-182/40744490]
6. O=C1c2cccc3c2C2=S(Sc4ccc(NC5CCCCC5)c1c42)N3C1CCCCC1 (stereo not shown) [AH-541/12737056]
7. O=C1/C(=C/c2ccc(-c3cccc(Cl)c3)o2)CCC/C1=C\c1ccc(-c2cccc(Cl)c2)o1 [AA-504/07472022]

1: 30.35; 2: 3.565; 3: -9.645; 4: 5.915; 5: -4.165; 6: 12.4; 7: 40.455

The following molecules each have a reported value; give each one's Averaged Enzymatic Inhibition @ 2ug/ml (%).
1. Cc1ccc(-c2cc(-c3ccccc3Cl)c3c(N)c(-c4nnc(-c5ccccc5)o4)sc3n2)cc1 [AG-690/40749514]
2. C(=N\Nc1nnc(-c2ccccc2)c(-c2ccccc2)n1)/c1c2ccccc2cc2ccccc12 [AK-968/11200121]
3. CC(C)(C)c1ccc(Oc2cc(Nc3ccccc3)c3c4c(onc24)-c2ccccc2C3=O)cc1 [AG-690/40097127]
4. N#Cc1c(N)nc2sc(C(=O)Nc3ccccc3)c(N)c2c1-c1cccs1 [AN-512/12594125]
5. N#CC1=C(N)Oc2n[nH]c(-c3ccccc3)c2C1c1cccc(OCc2cccc3ccccc23)c1 (stereo not shown) [AP-964/41446891]
6. O=c1oc2ccccc2cc1-c1nnc(NC2CCCCC2)s1 [AQ-968/42007731]
7. Cc1ccc(C(=O)CC2(O)C(=O)N(CCc3ccccc3)c3ccccc32)cc1 (stereo not shown) [AK-778/40897568]

[-4.41, -0.805, 11.435, 10.48, 13.75, -5.865, 18.54]

Source listed as paper PMC4840416.
